Numbers sourced from PubChem BioAssay AID179.

Here, each record is paired with measured IC50 data.
- Tested on: CEM cells HIV-1 protection, formazan growth assay
- ASSAY_SUMMARY: NCI AIDS Antiviral Assay
- RECORDED_CONDITIONS: measured here: growth of uninfected CEM cells
- Method: The ability of compounds to protect human CEM cells from HIV-1 infection is measured as a screen for new compounds capable of inhibiting the HIV virus. Five concentrations of drug were tested on uninfected and infected cells and cell growth was measured using a soluble formazan assay. […] Compounds that provided at least 50% protection were retested. Compounds that provided at least 50% protection on retest were listed as moderately active. […]

{"COMPOUND": "O=C(c1cccs1)N1CCCN(C(=O)c2cccs2)C1=S", "IC50": "> 200 µM"}
{"COMPOUND": "O=c1[nH]c2c(nc1NC13CC4CC(CC(C4)C1)C3)c(=O)oc1ccccc12", "IC50": "> 2 µM"}
{"COMPOUND": "Brc1ccc(/C=C2\\C=Cc3ccccc32)cc1", "IC50": "> 25.7 µM"}
{"COMPOUND": "CCOC(=O)/C=C1/SC(N2CCCCC2)C(=O)N1CC (stereo not drawn)", "IC50": "> 166 µM"}
{"COMPOUND": "COC(=O)C(Cc1nc2ccc(Cl)cc2[nH]c1=O)/C(=N/NC(N)=O)C(=O)Nc1ccc(Cl)cc1 (stereo not drawn)", "IC50": "> 70.8 µM"}
{"COMPOUND": "CC(C)(C)C1=C(Br)C(C(C)(C)C)OP1(=O)O (stereo not drawn)", "IC50": "> 100 µM"}
{"COMPOUND": "O=C1C(Cl)C(c2cccc([N+](=O)[O-])c2)N1n1cnc2ccccc2c1=O (stereo not drawn)", "IC50": "> 10 µM"}
{"COMPOUND": "Cc1cn([C@H]2C[C@@H]3[C@@H](COC(CCN=[N+]=[N-])N3O)O2)c(=O)[nH]c1=O (stereo partly drawn)", "IC50": "> 200 µM"}
{"COMPOUND": "CC(CCCOC(c1ccccc1)(c1ccccc1)c1ccccc1)OC(=O)Nc1ccccc1 (stereo not drawn)", "IC50": "> 28.8 µM"}
{"COMPOUND": "COc1ccc(/C=C2\\Cc3ccccc3C2=O)cc1OC", "IC50": "> 35.5 µM"}
{"COMPOUND": "Cc1c(Cl)ccc2c1NC(=O)C2(O)CC(=O)c1cccc2ccccc12 (stereo not drawn)", "IC50": "> 97.7 µM"}
{"COMPOUND": "NC1=NC2(CS1)CSC(N)=N2", "IC50": "> 263 µM"}
{"COMPOUND": "CC1=C(C(=O)Nc2ccccc2C)C(c2ccc(Cl)cc2)C(C(=O)Nc2ccccc2C)=C(C)N1", "IC50": "> 2.95 µM"}

----------
- System: CEM cells HIV-1 protection, formazan growth assay
- ASSAY_SUMMARY: NCI AIDS Antiviral Assay
- RECORDED_CONDITIONS: measured here: growth of uninfected CEM cells
pIC50: −log10 of the molar value.
Here, each record is paired with measured pIC50 data.

{"COMPOUND": "CC(C)CCCC(C)[C@H]1CC[C@H]2[C@@H]3CC[C@H]4C[C@@H](CCC=C(c5cc(Cl)c(OCC(=O)O)c(C(=O)O)c5)c5cc(Cl)c(OCC(=O)O)c(C(=O)O)c5)CC[C@]4(C)[C@H]3CC[C@]12C (some centres undefined)", "pIC50": "< 4.00"}
{"COMPOUND": "NC(=O)C(=Cn1c(=S)[nH]c2ccc([N+](=O)[O-])cc21)C(N)=O", "pIC50": "< 3.70"}
{"COMPOUND": "CCCCCCCCCCCCCCCCOC1OC(COC(C)=O)C(OC(C)=O)C(OC(C)=O)C1O (centres undefined)", "pIC50": "< 4.87"}
{"COMPOUND": "Clc1cccc(Cl)c1C1SCc2nc3cc4ccccc4cc3n21 (centres undefined)", "pIC50": "< 3.70"}

----------
- System: CEM cells HIV-1 protection, formazan growth assay
- ASSAY_SUMMARY: NCI AIDS Antiviral Assay

{"MOLECULE": "CS(=O)(=O)CS(=O)(=O)OCCCl", "EC50": "> 1050 µM"}
{"MOLECULE": "COc1cccc(/C=C/c2nc3ccccc3nc2/C=C/c2cccc(OC)c2OC)c1OC", "EC50": "> 200 µM"}
{"MOLECULE": "Cc1ccc(C2=CSC3=NCCN23)cc1Cl", "EC50": "> 200 µM"}
{"MOLECULE": "Cc1onc(-c2c(F)cccc2Cl)c1C(=O)Nc1cc2cc([N+](=O)[O-])ccc2oc1=O", "EC50": "> 50.1 µM"}
{"MOLECULE": "O=C1Oc2ccccc2CC1C(=O)c1ccc(Cl)cc1 (centres undefined)", "EC50": "> 18.2 µM"}
{"MOLECULE": "O=c1[nH]c2cnn(-c3ccccc3)c2c(=O)n1O", "EC50": "> 200 µM"}
{"MOLECULE": "Fc1ccc(N=NN2CCCC2)cc1", "EC50": "> 200 µM"}
{"MOLECULE": "CC1=C2[C@@H](c3ccccc3)C3C=CC2(c2ccccc23)N(C(=O)Nc2cccc3ccccc23)C1=O (some centres undefined)", "EC50": "> 5.75 µM"}
{"MOLECULE": "Cc1ccccc1N1C(N)=C(C#N)C(C#N)(C#N)C1c1ccccc1 (centres undefined)", "EC50": "> 200 µM"}

----------
- System: CEM cells HIV-1 protection, formazan growth assay
- ASSAY_SUMMARY: NCI AIDS Antiviral Assay
Here, each record is paired with measured EC50 data.
MEASURED_QUANTITY: EC50

{"MOLECULE_SMILES": "CCOC(=O)CC1(C)c2nc(NC(C)=O)sc2Cc2sc(NC(C)=O)nc21", "SYSTEM": "CEM cells HIV-1 protection, formazan growth assay", "MEASURED_QUANTITY": "EC50", "ENDPOINT_VALUE": "> 200 µM"}
{"MOLECULE_SMILES": "CN1c2ccccc2N(C)P1(=S)c1ccccc1", "SYSTEM": "CEM cells HIV-1 protection, formazan growth assay", "MEASURED_QUANTITY": "EC50", "ENDPOINT_VALUE": "> 200 µM"}
{"MOLECULE_SMILES": "Cc1cc(C)nc(NS(=O)(=O)c2ccc(NC(=O)c3cccc4cc5ccccc5nc34)cc2)n1", "SYSTEM": "CEM cells HIV-1 protection, formazan growth assay", "MEASURED_QUANTITY": "EC50", "ENDPOINT_VALUE": "> 91.2 µM"}

----------
- Tested on: CEM cells HIV-1 protection, formazan growth assay
- ASSAY_SUMMARY: NCI AIDS Antiviral Assay
- RECORDED_CONDITIONS: measured here: growth of uninfected CEM cells
MEASURED_QUANTITY: IC50

{"COMPOUND": "COC(=O)C1(C)C=C(Nc2ccccc2)C(=O)N1c1ccccc1 (stereo not drawn)", "MEASURED_QUANTITY": "IC50", "ENDPOINT_VALUE": "> 6.17 µM"}
{"COMPOUND": "CCOC(=O)C12OC(OCC)(CC1(OCC)OCC)C1(CC1)C2=O (stereo not drawn)", "MEASURED_QUANTITY": "IC50", "ENDPOINT_VALUE": "> 200 µM"}
{"COMPOUND": "S=c1sc2ccccc2n1CN1CCN(Cc2ccccc2)CC1", "MEASURED_QUANTITY": "IC50", "ENDPOINT_VALUE": "> 200 µM"}
{"COMPOUND": "C[N+](C)(C)CC(=O)N/N=C(/Cc1cc(=O)oc2cc(O)ccc12)C(=O)Nc1ccc(Cl)cc1", "MEASURED_QUANTITY": "IC50", "ENDPOINT_VALUE": "> 51.3 µM"}
{"COMPOUND": "c1cnc2c(c1)n[n+]1[n-]c3ccccc3n21", "MEASURED_QUANTITY": "IC50", "ENDPOINT_VALUE": "> 12.3 µM"}
{"COMPOUND": "COC1(C)C=NCC(C)(C)NC(=O)C(C)(OC)C=NCC(C)(C)NC1=O (stereo not drawn)", "MEASURED_QUANTITY": "IC50", "ENDPOINT_VALUE": "> 14.1 µM"}
{"COMPOUND": "CC1=C(c2cc(C(=O)Nc3ccc(Cl)cc3)nc(=S)[nH]2)Sc2ccccc2N1", "MEASURED_QUANTITY": "IC50", "ENDPOINT_VALUE": "> 85.1 µM"}
{"COMPOUND": "CCC1C(C)C=CN1c1nc(N)nc(NS(=O)(=O)c2cc(C)c(Cl)cc2S)n1 (stereo not drawn)", "MEASURED_QUANTITY": "IC50", "ENDPOINT_VALUE": "> 200 µM"}
